System: MYB
Experiment: HiBiT protein abundance assay, MYB (K562 HiBiT knock-in)
Assay type: cell-based, human
Conditions: HiBiT knock-in K562 cells, 24 hours, top dose 10 μM
quantityKind: IC50

> print(dat)
                                   compound  quantitykind  reported
1  Cn1cc2cc(-c3nc(C4CC4)c4cc(N5CCNCC5)ccc4n3)c(O)c(F)c2n1          IC50  < 0.1 µM
2  Cc1nc2c(F)c(O)c(-c3ccc4nc(N5CC[C@H](N[C@H]6C[C@@H](F)C6)C5)ccc4n3)cc2o1          IC50  < 0.1 µM
3  Cc1c(O)c(-c2nc(C(N)=O)c3cc(N4CCNCC4)ccc3n2)cc2cn(C)nc12          IC50  < 0.1 µM

Briefly, IC50 measured for Cc1nc2cc(O)c(-c3ccc4nc(N5CCN[C@@H](C)C5)ccc4n3)cc2o1 : 0.1 to 1 µM

Briefly, IC50 measured for Cn1cc2cc(-c3ccc4nc(N5CCC(N6CCCC6)C5)ccc4n3)c(O)cc2n1 (stereo not shown) : 0.1 to 1 µM

Briefly, IC50 measured for CNC(=O)c1nc(-c2cc3cn(C)nc3c(F)c2O)nc2ccc(N3C[C@@H](C)N[C@H](C)C3)cc12 (single isomer, unassigned) : < 0.1 µM

Briefly, IC50 measured for Cn1cc2cc(-c3ccc4nc(N5CCC(NC(C)(C)C)C5)ncc4n3)c(O)cc2n1 (stereo not shown) : 0.1 to 1 µM

Briefly, IC50 measured for Cc1cn2cc(-c3ccc4cc(N5CCNCC5)cc(F)c4n3)cc(F)c2n1 : < 0.1 µM

Briefly, IC50 measured for CNC(=O)c1nc(-c2cc3cn(C)nc3c(C)c2O)nc2ccc(N3CC[C@@H](NC)C3)cc12 : < 0.1 µM

Briefly, IC50 measured for Cn1cc2cc(-c3ccc4nc(N5CC(NC(C)(C)C)C5)ccc4n3)c(O)cc2n1 : 1 to 10 µM

Briefly, IC50 measured for Cc1c(O)c(-c2ccc3nc(N4CC[C@H](NC5CC5)C4)ccc3n2)cc2cn(C)nc12 : < 0.1 µM

Briefly, IC50 measured for CN[C@@H]1CCN(c2ccc3nc(-c4cc5cn(C)nc5c(F)c4O)nc(C4CC4)c3c2)C1 : < 0.1 µM

Briefly, IC50 measured for CCc1nc2cc(O)c(-c3ccc4nc(N5CCC(NC(C)(C)C)C5)ccc4n3)cc2o1 (stereo not shown) : 1 to 10 µM

----------
System: HTT mRNA
Assay: RT-qPCR splicing assay, HTT mRNA canonical (CJ) and alternative (AJ) junction
Format: cell-based, human
Settings: Homo sapiens, RT-qPCR, HTT canonical junction mRNA decrease; read-out: HTT CJ (decrease in canonical junction mRNA, IC50)
quantityKind: IC50

Look over these answered cases.
> print(dat)
                                   compound          reported
1  C[C@H]1CN(c2ccc3nc(-c4cc(F)c5nc(CO)cn5c4)ncc3c2)C[C@H](C)N1 (single isomer, unassigned)    100 to 1000 nM
2  C[C@@H]1CN(c2ccc3nc(-c4cc(F)c5nn(C)cc5c4)ncc3c2)C[C@H](C)N1  1000 to 10000 nM
3  Cc1cn2cc(-c3ncc4cc(N5C[C@H](C)N(C)[C@@H](C)C5)ccc4n3)cc(F)c2n1    100 to 1000 nM

Consider the record given below.
Briefly, IC50 measured for C[C@H]1CN(c2ccc3nc(-c4cc5cn(C)nc5cc4O)ncc3c2)CC2(CC2)N1 (single isomer, unassigned) : 1000 to 10000 nM

----------
Test system: HTT mRNA
Experiment: RT-qPCR splicing assay, HTT mRNA canonical (CJ) and alternative (AJ) junction
Type: cell-based, human
Details: Homo sapiens, HTT canonical junction mRNA, RT-qPCR; read-out: HTT CJ (decrease in CJ mRNA levels, IC50)
pIC50: −log10 of the molar value.
quantityKind: pIC50

Look over these answered cases.
> print(dat)
                                   molecule  targetsystem      reported
1  CC1CN(c2ccc3nc(-c4cc5cn(C)nc5cc4O)ccc3n2)CCN1C (stereo not shown)      HTT mRNA  5.00 to 6.00
2  Cc1nc2cc(O)c(-c3ccc4nc(N5CC[C@@H](N[C@H]6C[C@@H](F)C6)C5)ccc4n3)cc2o1 (stereo in doubt)      HTT mRNA  6.00 to 7.00
3  Cn1cc2cc(-c3ccc4nc([C@H]5CCNC6(CC6)C5)ccc4n3)c(O)cc2n1 (single isomer, unassigned)      HTT mRNA  6.00 to 7.00
4  Cc1nc2cc(O)c(-c3ccc4nc(N5CC[C@H](NC6CC6)C5)ccc4n3)cc2o1      HTT mRNA        > 7.00
5  Cc1nc2c(C)c(O)c(-c3ccc4nc(N5CC[C@H](NC(C)(C)C)C5)ccc4n3)cc2o1      HTT mRNA        > 7.00
6  Cc1nc2c(F)c(O)c(-c3ccc4nc(N5CCC(NC6(C)CC6)C5)ccc4n3)cc2o1 (stereo in doubt) [Compound 327]      HTT mRNA        > 7.00

Consider the record given below.
Briefly, pIC50 measured for Cc1c(O)c(-c2ncc3nc(N4CCC5(CCN5)C4)ccc3n2)cc2cn(C)nc12 (stereo not shown) : 6.00 to 7.00

----------
System: MYB
Assay: HiBiT protein abundance assay, MYB (K562 HiBiT knock-in)
Type: cell-based, human
Settings: HiBiT knock-in K562 cells, 24 hours, top dose 10 μM
pIC50: −log10 of the molar value.
# pIC50 per record follows

> print(dat)
                                   compound  quantitykind      reported
1  Cc1nc2cc(O)c(-c3ccc4nc(N5C[C@@H](C)N[C@@H](C6CC6)C5)ccc4n3)cc2o1         pIC50  6.00 to 7.00
2  CNC(=O)c1nc(-c2cc3cn(C)nc3c(F)c2O)nc2ccc(N3CCC(N(C)C)CC3)cc12         pIC50        > 7.00
3  CC1CN(c2ccc3nc(-c4cc5cn(C)nc5cc4O)ccc3n2)CCN1C (stereo not drawn)         pIC50  6.00 to 7.00

Briefly, pIC50 measured for Cn1cc2cc(-c3ccc4nc(N5CCC(NC67CC(O)(C6)C7)C5)ccc4n3)c(O)cc2n1 (stereo not drawn) : 6.00 to 7.00

Briefly, pIC50 measured for Cc1nc2cc(O)c(-c3ccc4nc(N5CCN[C@H](C6CC6)C5)ccc4n3)cc2o1 : 6.00 to 7.00

Briefly, pIC50 measured for Cc1nc2cc(O)c(-c3ccc4nc(N5CCNC6(CC6)C5)ccc4n3)cc2o1 : 6.00 to 7.00

Briefly, pIC50 measured for Cc1nc2cc(O)c(-c3ccc4nc(N5CC[C@H](N[C@H]6C[C@H](F)C6)C5)ccc4n3)cc2o1 : 6.00 to 7.00

----------
Test system: HTT
Assay: HiBiT protein abundance assay, HTT (K562 HiBiT knock-in)
Type: cell-based, human
Conditions: HiBiT knock-in K562 cells, 24 hours, top dose 10 μM
pIC50: −log10 of the molar value.
# pIC50 per record follows

Look over these answered cases.
> print(dat)
                                   compound  quantitykind      reported
1  COc1cc2nn(C)cc2cc1-c1ccc2c(F)c(C3CCNCC3)ccc2n1         pIC50        < 5.00
2  Cc1cc(-c2ccc3nc(N4CCC(NC(C)(C)C)C4)ccc3n2)nc2cn(C)nc12 (stereo not shown)         pIC50  6.00 to 7.00
3  CC(C)(C)NC1CCN(c2ccc3nc(-c4cc5cnccc5cc4O)ccc3n2)C1 (stereo not shown)         pIC50        < 5.00

Briefly, pIC50 measured for Cn1cc2nc(-c3ccc4nc(C5CCNCC5)ccc4n3)c(F)cc2n1 : 5.00 to 6.00

----------
# AC50 per record follows
Test system: MYB mRNA
Experiment: RT-qPCR splicing assay, MYB mRNA canonical (CJ) and alternative (AJ) junction
Assay type: cell-based, human
Conditions: Homo sapiens, RT-qPCR, MYB alternative junction mRNA increase; read-out: MYB AJ (increase in alternative junction mRNA, AC50)

molecule	AC50
Cc1cn2cc(-c3ncc4cc(N5C[C@@H](C)N(C)[C@@H](C)C5)ccc4n3)cc(F)c2n1 [Compound 826]	< 100 nM
CN(C)C1CCN(c2ccc3nc(-c4cc5cn(C)nc5c(F)c4O)ncc3c2)CC1 [Compound 757]	100 to 1000 nM
Cc1c(O)c(-c2ccc3cc(N4CCNC5(CC5)C4)cc(F)c3n2)cc2cn(C)nc12 [Compound 805]	< 100 nM
Cc1cn2cc(-c3ncc4cc(N5C[C@H](C)N[C@@H](C)C5)ccc4n3)cc(C#N)c2n1 [Compound 817]	< 100 nM

Briefly, AC50 measured for C[C@@H]1CN(c2ccc3nc(-c4cc(F)c5nncn5c4)ncc3c2)C[C@H](C)N1 [Compound 833] : 1000 to 10000 nM

Briefly, AC50 measured for Cc1c(O)c(-c2ccc3cc(N4C[C@H](C)N[C@@H](C)C4)cc(F)c3n2)cc2cn(C)nc12 (single isomer, unassigned) [Compound 800, 2,2,2-trifluoroacetate] : < 100 nM

Briefly, AC50 measured for Cc1c(O)c(-c2nc(C(N)=O)c3cc(N4C[C@@H](C)N[C@@H](C)C4)ccc3n2)cc2cn(C)nc12 [Compound 784] : < 100 nM

// provenance: patent US20250092065A1
